Measured pKd, listed per entry.
# target-entity: protein A (UniProt P38507 37-327)
# protocol-summary: Octet HTX (ForteBio), HCAb on AHC sensor, 1:1 fit
pKd: −log10 of the molar value.
measure-name: pKd

binder	measure-name	data-value
CNG-HSA-117 (VHH) VHH: KVQLVESGGGLVQPGNSLRLSCAASGFTFSSFGMSWVRQAPGKGLEWVSSISGSGSDTLYADSVKGRFTISRDNSKNTLYLQMNSLRAEDTAVYYCTIGGSLTRSSQGTLVTVSS	pKd	8.75
CNG-HSA-107 (VHH) VHH: KVQLLESGGGLVQPGGSLRLSCAASGFTFSSFGMSWVRQAPGKGLEWVSSISGSGSDTLYADSVRGRFTISRDNSKNTLYLQMNSLRAEDTAVYYCSIGGSLIRSSQGTLVTVSS	pKd	8.51
CNG-HSA-102 (VHH) VHH: KVQLLESGGGLVQPGGSLRLSCAASGFTFSSFGMSWVRQAPGKGLEWVSSISGSGSDTLYADSVRGRFTISRDNSKNTLYLQMNSLRPEDTAVYYCTIGGSLSPSSQGTLVTVSS	pKd	8.77
CNG-HSA-104 (VHH) VHH: KVQLLESGGGLVQPGGSLRLSCAASGFTFHSFGMSWVRQAPGKGLEWVSSISGSGSDTLYADSVKGRFTISRDNSKNTLYLQMNSLRPEDTAVYYCTIGGSLSRSSQGTLVTVSS	pKd	8.77
